System: HEK-293T
Measurement Notes: Multiplex assay against HEK293T
Format: toxicity, cell-based
Study Conditions: human, 12 h, 1 µM, compound concentration 1 uM, replicate 2
Result Type: Population Membrane Permeable-Phenotype (%)
Hi! Could you send only the number? It should be in %, unit omitted.

>>> df
                                 smiles_str  measured_value
0  CCc1cccc(CC)c1NC(=O)c1nn(C)c2c1CCc1cnc(Nc3ccc(N4CCN(C)CC4)cc3OC)nc1-2               5

// "O=C(Cc1ccc(-c2ccc(OCCN3CCOCC3)cc2)cn1)NCc1ccccc1" : Population Membrane Permeable-Phenotype (%) value = 10

// "CCN1CCN(Cc2ccc(Nc3ncc(F)c(-c4cc(F)c5nc(C)n(C(C)C)c5c4)n3)nc2)CC1.CS(=O)(=O)O" : Population Membrane Permeable-Phenotype (%) value = 14

// "Cc1cn(-c2cc(NC(=O)c3ccc(C)c(Nc4nccc(-c5cccnc5)n4)c3)cc(C(F)(F)F)c2)cn1" : Population Membrane Permeable-Phenotype (%) value = 10

Attribution: ChEMBL document CHEMBL4689842
